protocol-description: Toxicity in rat
Type: organism-based
condition-details: in vivo
endpoint-name: LD50

Sample COc1ccc(/C=C/C=O)cc1 ; LD50 observed: > 5000 mg/kg

###

System: Abutilon theophrasti
protocol-description: Herbicidal activity against velvetleaf assessed as seed germination at 2.5 mM after 4 days relative to control
Assay type: functional
Parameter threshold = 3%. Response is Condition met when Activity meets or exceeds it, else Condition not met.

1. C/C=C/c1ccc(OC)cc1 [ANETHOLE]    Condition met
2. COc1ccc(/C=C/C(=O)O)cc1 [4-METHOXYCINNAMIC ACID]    Condition met
3. COc1ccc(/C=C/C=O)cc1 [PARA-METHOXY CINNAMALDEHYDE]    Condition met
4. O=C(O)/C=C/c1ccccc1 [CINNAMIC ACID]    Condition met
5. OC/C=C/c1ccccc1 [CINNAMIC ALCOHOL]    Condition not met

Consider the additional compound presented here.
Req: Please indicate if the recorded Activity for O=C/C=C/c1ccccc1 [CINNAMALDEHYDE] meets or exceeds 3%.
Resp: Condition not met
